target: Tyrosine-protein kinase ABL1 (Homo sapiens) + Ras and Rab interactor 1 (Homo sapiens) (UniProt P00519+Q13671); assay: inhibitors of Rin1-Abl protein binding, primary screen, biochemical, TR-FRET (AID 588664); conditions: at 7.35 µM, hits give high values
Sequence (P00519 whole entry, looked up): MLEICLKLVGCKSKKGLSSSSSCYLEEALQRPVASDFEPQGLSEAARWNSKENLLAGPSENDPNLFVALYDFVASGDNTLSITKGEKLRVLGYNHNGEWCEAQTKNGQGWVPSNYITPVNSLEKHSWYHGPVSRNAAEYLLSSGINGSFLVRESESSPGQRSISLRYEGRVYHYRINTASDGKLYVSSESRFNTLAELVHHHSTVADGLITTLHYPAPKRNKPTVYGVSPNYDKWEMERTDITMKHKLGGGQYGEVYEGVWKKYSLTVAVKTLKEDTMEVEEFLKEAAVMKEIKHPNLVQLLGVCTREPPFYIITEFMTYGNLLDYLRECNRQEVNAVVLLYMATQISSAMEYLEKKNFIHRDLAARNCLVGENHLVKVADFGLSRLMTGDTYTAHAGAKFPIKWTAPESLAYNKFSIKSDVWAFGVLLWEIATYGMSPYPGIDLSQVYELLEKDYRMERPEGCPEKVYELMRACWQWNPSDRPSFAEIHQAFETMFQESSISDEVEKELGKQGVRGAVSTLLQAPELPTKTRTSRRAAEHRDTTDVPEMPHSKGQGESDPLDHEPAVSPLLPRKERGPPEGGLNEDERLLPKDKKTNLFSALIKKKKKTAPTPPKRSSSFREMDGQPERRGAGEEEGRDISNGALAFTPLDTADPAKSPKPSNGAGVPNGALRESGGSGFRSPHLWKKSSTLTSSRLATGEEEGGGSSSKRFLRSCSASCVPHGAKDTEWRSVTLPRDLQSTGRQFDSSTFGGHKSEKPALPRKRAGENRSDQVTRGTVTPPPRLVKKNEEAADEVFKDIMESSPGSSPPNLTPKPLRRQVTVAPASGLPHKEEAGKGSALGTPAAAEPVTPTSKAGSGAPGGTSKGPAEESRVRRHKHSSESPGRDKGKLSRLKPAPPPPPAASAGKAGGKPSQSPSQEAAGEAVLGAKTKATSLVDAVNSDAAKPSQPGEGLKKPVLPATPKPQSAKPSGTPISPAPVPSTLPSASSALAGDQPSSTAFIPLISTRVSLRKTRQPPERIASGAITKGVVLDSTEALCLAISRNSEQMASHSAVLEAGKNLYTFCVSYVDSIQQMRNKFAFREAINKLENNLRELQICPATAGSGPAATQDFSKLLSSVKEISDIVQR
Sequence (Q13671 whole entry, looked up): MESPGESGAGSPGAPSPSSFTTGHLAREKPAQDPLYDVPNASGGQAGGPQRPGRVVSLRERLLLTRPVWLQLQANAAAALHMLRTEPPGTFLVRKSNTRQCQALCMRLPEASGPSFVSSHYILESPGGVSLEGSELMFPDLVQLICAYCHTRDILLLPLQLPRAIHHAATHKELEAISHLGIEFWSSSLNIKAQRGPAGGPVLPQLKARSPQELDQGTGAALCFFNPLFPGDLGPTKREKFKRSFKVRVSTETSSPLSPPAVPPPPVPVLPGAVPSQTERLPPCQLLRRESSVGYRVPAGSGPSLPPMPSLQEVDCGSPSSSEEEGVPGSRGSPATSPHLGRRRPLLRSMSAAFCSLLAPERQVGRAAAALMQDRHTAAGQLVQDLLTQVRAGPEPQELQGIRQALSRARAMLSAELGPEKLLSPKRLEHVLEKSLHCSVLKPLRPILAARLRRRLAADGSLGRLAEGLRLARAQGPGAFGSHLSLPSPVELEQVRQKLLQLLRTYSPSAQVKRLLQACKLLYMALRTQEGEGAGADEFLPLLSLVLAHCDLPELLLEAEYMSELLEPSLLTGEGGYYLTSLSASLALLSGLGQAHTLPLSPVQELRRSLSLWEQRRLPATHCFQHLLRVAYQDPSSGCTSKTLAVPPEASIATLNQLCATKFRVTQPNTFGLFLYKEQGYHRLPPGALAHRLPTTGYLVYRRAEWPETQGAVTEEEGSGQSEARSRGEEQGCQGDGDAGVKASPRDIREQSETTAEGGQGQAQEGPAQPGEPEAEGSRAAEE
Hit rate of the full screen: of about 360,000 compounds, about 1,400 (0.39%) were called active. The list comes from a sample in which actives are over-represented; it also holds close analogues and randomly drawn compounds.
readoutType: inhibition (%)
Your answer should be a plain number; it is taken to be in %.

Example entries begin here.
{"columns": ["compound", "inhibition, %"],
 "data": [
  ["Cc1c(C(=O)Nc2ccccc2)sc2nc3n(c(=O)c12)CCCCC3", -0.6],
  ["COCCNC(=O)Nc1ccc2nc(-c3ccco3)c(-c3ccco3)nc2c1", 8.86],
  ["Cn1nc([N+](=O)[O-])nc1Sc1ccc(C(C)(C)C)cc1", -6.46]
]}

Q. Param item = "C=CCn1c2ccccc2c2nnc(SCc3[nH]c(=O)[nH]c3C(=O)CCCCC(=O)OCC)nc21" ; retrieve measured inhibition.
A. 59.4

Q. Now try "CC(=O)c1ccc(NC(=O)c2sc3nc4n(c(=O)c3c2C)CCCCC4)cc1" .
A. 0.85

Q. Now try "Cc1ccc(C)c(NS(=O)(=O)c2ccc(OCC(=O)NCc3cccnc3)cc2)c1" .
A. 2.47

* * *

molecular target: Tyrosine-protein kinase ABL1 (Homo sapiens) + Ras and Rab interactor 1 (Homo sapiens) (UniProt P00519+Q13671); assay: inhibitors of Rin1-Abl protein binding, primary screen, biochemical, TR-FRET (AID 588664); conditions: at 7.35 µM, hits give high values
Screen size: about 360,000 compounds; about 1,400 (0.39%) were called active. The list comes from a sample in which actives are over-represented; it also holds close analogues and randomly drawn compounds.
readoutType: inhibition (%)
Your answer should be a plain number; it is taken to be in %.

Example entries begin here.
{"columns": ["compound", "readoutType", "valueUnit", "value"],
 "data": [
  ["Cn1cc(CN2CCCC(CO)C2)c(-c2ccc(Oc3ccccc3)cc2)n1 (stereo not given)", "inhibition", "%", 1.99],
  ["COCCNc1ncnc2c1ncn2[C@H]1CN(Cc2ccc(OC)cc2)C[C@@H](CO)O1", "inhibition", "%", -1.27]
]}

Let us move to another entry and its inhibition.
Q. Param item = C=CCn1c2ccccc2c2nnc(SC(CC)C(=O)Nc3nc(C)c(C(=O)OCC)s3)nc21 (stereo not given) ; retrieve measured inhibition.
A. 2.82

* * *

molecular target: Tyrosine-protein kinase ABL1 (Homo sapiens) + Ras and Rab interactor 1 (Homo sapiens) (UniProt P00519+Q13671); assay: inhibitors of Rin1-Abl protein binding, primary screen, biochemical, TR-FRET (AID 588664); details: at 7.35 µM, hits give high values
The whole screen tested about 360,000 compounds, of which about 1,400 (0.39%) were called active. The entries come from a sample that favours actives as a whole.
inhibition values by entry
Your answer should be a plain number; it is taken to be in %.

Example entries begin here.
{"columns": ["compound", "inhibition [%]"],
 "data": [
  ["CCc1cc2c(N3CCN(c4nnc(CC)s4)CC3)ncnc2s1", 7.4],
  ["Cc1c(CCC(=O)O)c(=O)oc2c(C)c(OCc3ccccc3Cl)ccc12", 1.81],
  ["CSc1ccc(/C=C/C(=O)NC23CC4CC(CC(C4)C2)C3)cc1", -0.46],
  ["CCOCCCNC(=O)C(NC(=O)Cc1c[nH]c2ccccc12)c1ccc(OC)cc1 (configuration not stated)", -1.97],
  ["CN(CC(=O)Nc1ccc(F)cc1)CC(=O)Nc1ccc(Cl)c(S(=O)(=O)N2CCOCC2)c1", 5.07]
]}

Let us move to another entry and its inhibition.
Q. Param item = "C=CCn1c(SCC(=O)CC(=O)OCC)nc2cc(C(=O)N3CCC(C(N)=O)CC3)ccc2c1=O" ; retrieve measured inhibition.
A. -1.96
